B1: PTPRD (parent)
chain: ELDELLKEISRKRRSIRYGREVEL

# Variants of: B1
# Assay overview: protein stability index of a GFP-peptide fusion (GPS, HEK-293T) (PSI 1-6); higher = more stable;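 also: lentivirally expressed fusions sorted by FACS into six bins by GFP to DsRed ratio, PSI derived from sequencing read proportions per bin multiplied by bin number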
# Run parameters: c terminus: a fixed tail appended
Catalogue of protein stability index values

{"Sequence entry": "ELDELLKEISRKRRSCRYGREVEL [I16C]", "protein stability index": 2.81}
{"Sequence entry": "ELDELLKEISRKRRPIRYGREVEL [S15P]", "protein stability index": 2.6}
{"Sequence entry": "ESDELLKEISRKRRSIRYGREVEL [L2S]", "protein stability index": 2.99}
{"Sequence entry": "ELDELLKEISRKRRSHRYGREVEL [I16H]", "protein stability index": 2.37}
{"Sequence entry": "ELDELLIEISRKRRSIRYGREVEL [K7I]", "protein stability index": 2.27}
{"Sequence entry": "WLDELLKEISRKRRSIRYGREVEL [E1W]", "protein stability index": 2.69}
{"Sequence entry": "ELDELLKEISRKRRSSRYGREVEL [I16S]", "protein stability index": 3.4}
{"Sequence entry": "ELDELLEEISRKRRSIRYGREVEL [K7E]", "protein stability index": 3.1}
{"Sequence entry": "ELDELNKEISRKRRSIRYGREVEL [L6N]", "protein stability index": 3.81}
{"Sequence entry": "ELDELLKEISRKRRSIRYGVEVEL [R20V]", "protein stability index": 1.8}
{"Sequence entry": "ELDELLKEISRKRRSIRYGRFVEL [E21F]", "protein stability index": 2.22}
{"Sequence entry": "ELDELSKEISRKRRSIRYGREVEL [L6S]", "protein stability index": 3.98}
{"Sequence entry": "ELDELLKEISRKRRSIRAGREVEL [Y18A]", "protein stability index": 2.13}
{"Sequence entry": "ELDELLKEISRKRRWIRYGREVEL [S15W]", "protein stability index": 1.59}
{"Sequence entry": "ELDELLKEICRKRRSIRYGREVEL [S10C]", "protein stability index": 3.15}
{"Sequence entry": "ELDELLTEISRKRRSIRYGREVEL [K7T]", "protein stability index": 3.09}
{"Sequence entry": "ELDELLKEISRKRRSIRYGREVGL [E23G]", "protein stability index": 2.41}
{"Sequence entry": "ELDELLKEISRKRRSIRYGREVEV [L24V]", "protein stability index": 2.92}
{"Sequence entry": "ELDELLKEISRKSRSIRYGREVEL [R13S]", "protein stability index": 3.25}
{"Sequence entry": "ELDELLKEISRKRRSIRPGREVEL [Y18P]", "protein stability index": 2.78}
{"Sequence entry": "ELDELLKEWSRKRRSIRYGREVEL [I9W]", "protein stability index": 2.89}
{"Sequence entry": "ELDELLKEISRKRRSIRYGREVEQ [L24Q]", "protein stability index": 2.32}
{"Sequence entry": "ELDELLKEITRKRRSIRYGREVEL [S10T]", "protein stability index": 2.49}
{"Sequence entry": "ELDVLLKEISRKRRSIRYGREVEL [E4V]", "protein stability index": 1.94}
{"Sequence entry": "ELDELLKEINRKRRSIRYGREVEL [S10N]", "protein stability index": 2.77}
{"Sequence entry": "ELDELLCEISRKRRSIRYGREVEL [K7C]", "protein stability index": 2.33}
{"Sequence entry": "ELDELLKEISRKRRSIRYGRLVEL [E21L]", "protein stability index": 2.12}
{"Sequence entry": "ELDELLKEISRLRRSIRYGREVEL [K12L]", "protein stability index": 1.95}
{"Sequence entry": "ELDELLKEISRKRRSIRCGREVEL [Y18C]", "protein stability index": 1.67}
{"Sequence entry": "EMDELLKEISRKRRSIRYGREVEL [L2M]", "protein stability index": 2.92}
{"Sequence entry": "ELAELLKEISRKRRSIRYGREVEL [D3A]", "protein stability index": 1.76}
{"Sequence entry": "ELDELLKEISRKRRLIRYGREVEL [S15L]", "protein stability index": 2.04}
{"Sequence entry": "ELDELLKEISRKRRSIRYGRYVEL [E21Y]", "protein stability index": 2.15}
{"Sequence entry": "ELDELLKEISRKRNSIRYGREVEL [R14N]", "protein stability index": 2.1}
{"Sequence entry": "ELDELLKEISRKRRSIRTGREVEL [Y18T]", "protein stability index": 2.17}
{"Sequence entry": "ELDELLKEISRKRRSISYGREVEL [R17S]", "protein stability index": 2.44}
{"Sequence entry": "ELDELLKEQSRKRRSIRYGREVEL [I9Q]", "protein stability index": 4.18}
{"Sequence entry": "ELDELLKEILRKRRSIRYGREVEL [S10L]", "protein stability index": 1.41}
{"Sequence entry": "ELDELLKEISRKRRSIRYGDEVEL [R20D]", "protein stability index": 3.33}
{"Sequence entry": "ELQELLKEISRKRRSIRYGREVEL [D3Q]", "protein stability index": 2.62}
{"Sequence entry": "ELDELLKEISCKRRSIRYGREVEL [R11C]", "protein stability index": 2.94}
{"Sequence entry": "ELDELLKEISRKRRSIRYSREVEL [G19S]", "protein stability index": 2.04}
{"Sequence entry": "ELDELLKEISRKQRSIRYGREVEL [R13Q]", "protein stability index": 2.36}
{"Sequence entry": "ELDELLKLISRKRRSIRYGREVEL [E8L]", "protein stability index": 2.03}
{"Sequence entry": "ELDELLKCISRKRRSIRYGREVEL [E8C]", "protein stability index": 1.83}
{"Sequence entry": "EEDELLKEISRKRRSIRYGREVEL [L2E]", "protein stability index": 4.41}
